Molecular target: T1, APC8516-AA
T1 chain: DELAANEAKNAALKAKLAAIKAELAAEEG
Test: two-hybrid library CCmax;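 further: natural log of median RNA to DNA barcode read ratio; higher means stronger binding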
Settings: mean of both orientations
Give measured interaction score for each item. Keep answers brief.

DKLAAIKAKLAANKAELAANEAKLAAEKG [APC1987-AA] : -2.25
DKAAALKAKAAALKAKNAALKAENAALEG [APC3354-AA] : -1.98
DELAANEAENAALEAELAAIEAKLAAIKG [APC8401-AA] : -1.57
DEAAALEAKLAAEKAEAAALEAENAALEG [APC2724-AA] : -1.9
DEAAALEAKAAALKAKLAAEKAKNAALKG [APC2375-AA] : -1.58

// batch mode: one interaction score value per listed entry
1. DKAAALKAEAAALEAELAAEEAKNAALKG [APC3265-AA]
2. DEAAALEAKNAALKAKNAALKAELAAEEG [APC2556-AA]

1: -1.33; 2: -2.01
